- Test system: MLO-Y4 osteocytes
- TEST_SUMMARY: High-throughput drug screening of primary cilia length and incidence
- Format: cell-based
- EXPERIMENTAL_PARAMETERS: 10 μM, 16 hours, triplicate; normalized to vehicle control; standard deviation away from the population average
Where a name gives a salt, the structure may show the parent alone.
Below, each of the molecules is paired with its reported Average Length SD Away value.
# number only, unit SD dropped from output

Answered examples (8):
S=c1nc[nH]c2nc[nH]c12 = 1.722
C=C[C@H]1C[N@@]2CC[C@H]1C[C@@H]2[C@@H](O)c1ccnc2ccc(OC)cc12 [QUINIDINE GLUCONATE] = 1.825
COc1cc2c(cc1OC)C1C(=O)c3c(cc4c(c3O)C=CC(C)(C)O4)OC1CO2 (stereo not drawn) = 1.664
COc1ccc2oc(-c3ccccc3OC)cc(=O)c2c1 = 1.745
CNC(=O)c1cc(Oc2ccc(NC(=O)Nc3ccc(Cl)c(C(F)(F)F)c3)cc2)ccn1 = 1.5
CC[C@]1(O)C[C@@H]2CN(CCc3c([nH]c4ccccc34)[C@@](C(=O)OC)(c3cc4c(cc3OC)N(C)[C@H]3[C@@](O)(C(=O)OC)[C@H](OC(C)=O)[C@]5(CC)C=CCN6CC[C@]43[C@@H]65)C2)C1 = 1.771
CC(=O)O[C@H]1C[C@@H](OC(C)=O)C(C)(C)[C@@H]2C[C@@H](OC(C)=O)[C@]3(C)[C@H](CC[C@@]4(C)[C@H](c5ccoc5)OC(=O)[C@H]5O[C@@]534)[C@@]12C = 1.723
CCCCOc1ccc(CC(=O)NO)cc1 = 3.676

[Q] Record lookup: for MLO-Y4 osteocytes, what Average Length SD Away belongs to COc1cc(/C=C/C(=O)N2CCC=CC2=O)cc(OC)c1OC ?
[A] 3.198

[Q] Record lookup: for MLO-Y4 osteocytes, what Average Length SD Away belongs to CC[C@@]1(O)C(=O)OCc2c1cc1n(c2=O)Cc2cc3c(CN(C)C)c(O)ccc3nc2-1 [Topotecan hydrochloride hydrate] ?
[A] 3.899

[Q] Record lookup: for MLO-Y4 osteocytes, what Average Length SD Away belongs to Nc1nc(N)c2nc(-c3ccccc3)c(N)nc2n1 ?
[A] 2.775

[Q] Record lookup: for MLO-Y4 osteocytes, what Average Length SD Away belongs to COc1cc(OC)c(C=C2C(O)=Nc3ccccc32)c(OC)c1 ?
[A] 1.651

[Q] Record lookup: for MLO-Y4 osteocytes, what Average Length SD Away belongs to CCN(CC)CCNc1ccc(CO)c2sc3ccccc3c(=O)c12 ?
[A] 2.896

[Q] Record lookup: for MLO-Y4 osteocytes, what Average Length SD Away belongs to c1ccc2c(c1)[I+]c1ccccc1-2 [Diphenyleneiodonium chloride] ?
[A] 2.603

[Q] Record lookup: for MLO-Y4 osteocytes, what Average Length SD Away belongs to O=C(/C=C/c1ccccc1)c1ccc(O[C@@H]2O[C@H](CO)[C@@H](O)[C@H](O)[C@H]2O)cc1O [2 4 -DIHYDROXYCHALCONE 4 -GLUCOSIDE] ?
[A] 1.598
